For each record, write down the corresponding RP-LC retention time.
- TEST_METHOD_NOTES: gradient 5% acetonitrile 3 min, to 50% in 2 min, to 85% in 15 min, held 3 min, 100 µL/min
- REPORTED_CONDITIONS: column: Zorbax Extend-C18 2.1 x 50 mm; eluents: water / acetonitrile, 0.1% formic acid
Reply numerically in s, unit not repeated.

Any idea what its RP-LC retention time is? The compound is CC(C)c1nc2ccc(CCC(=O)NC(C)c3ccccc3)cc2[nH]1 (centres undefined)
610

For the compound shown here, CCOC(=O)c1cc(C2CC2)nc2c1c(=O)n(Cc1ccc(Cl)cc1)c(=O)n2C , give the reported RP-LC retention time.
1260

Bench note: what RP-LC retention time did CCc1cccc2c1[nH]c1cc(NC(=O)CCc3c(C)[nH]c(=O)[nH]c3=O)ccc12 show?
677

Could you share which RP-LC retention time value was measured for Cc1cc(C(=O)Nc2c(F)cc(F)cc2Br)n(-c2ccccc2)n1 ?
884

Which RP-LC retention time is listed for CCCCC(=O)Nc1ccc2nc(N3CCN(C)CC3)cc(C(=O)O)c2c1 ?
571

I have this compound here, COc1ccc(Cl)cc1NC(=O)N1CCCC(C)(C(=O)NCc2ccc(C)cc2)C1 (centres undefined) , and I need its recorded RP-LC retention time.
982

Which RP-LC retention time value is on record for Cc1ccc2[nH]cc(CCNC(=O)Cn3c4ccccc4c4cnn(C)c(=O)c43)c2c1 ?
839

Query: RP-LC retention time; subject: COCCNC(=O)C1CCN(c2nc3ccc(-c4ccc(F)cc4)nc3s2)CC1
835

Look up RP-LC retention time for this compound: O=C(c1ccc(F)cc1F)N1CCC2(CC1)N=C(c1ccc(Cl)cc1)NO2
900

Reported RP-LC retention time, compound N#Cc1ccc(C(=O)N2CCC(c3cc(N)on3)CC2)cc1 : ____
641

Could you tell me which RP-LC retention time is on file for O=C(O)c1cn(-c2ccc3c(c2)CCC3)nn1 ?
768

Fill in the blank: the reported RP-LC retention time of O=C(NCC1CCN(C(=O)c2ccccc2F)CC1)C(=O)Nc1ccon1 is ____.
636

Form field: reported RP-LC retention time of CCOc1ccc(N2CC(NC(=O)NCCc3ccc(S(N)(=O)=O)cc3)CC2=O)cc1 (centres undefined)
617

Value lookup for RP-LC retention time; key = O=C1CCN(C(=O)c2ccsc2)CCCOCCN1
586

Give its RP-LC retention time value. Item: Cc1cc2c(cc1S(=O)(=O)N1CCN(c3ccccn3)CC1)OCCN2C
668

# get_value(readout='RP-LC retention time', item= Cc1nc(-c2csc(S(=O)(=O)N3CCC(C(=O)N4CCc5ccccc5C4)CC3)c2)no1 )
1050

Fill in: RP-LC retention time of CC(C)n1nnc2cc(C(=O)N(C)CC(=O)Nc3cccc(Br)c3)ccc21 is ___
805

Can you look up the measured RP-LC retention time of Cn1cc(CN2C[C@@H](CO)[C@H](NC(=O)C3CCC3)C2)c2ccccc21 for me?
615

Look at this compound and give its reported RP-LC retention time. CCOCC(=O)N1CCN(S(=O)(=O)c2c(C)nn(C(C)C)c2C)CC1
702

Would you kindly share the measured RP-LC retention time for CCNC(=O)c1ccc2c(c1)CCN2C(=O)CC ?
651

# input compound: Cc1ccc(F)cc1S(=O)(=O)N1CCC2(CCN(c3cccnc3)C2)C1 (centres undefined) ; wanted: its RP-LC retention time
685

Fill in: RP-LC retention time of Cc1cc(C)cc(C(=O)N2CCCC(C(=O)NCCN3CCCC3)C2)c1 (centres undefined) is ___
606

Report RP-LC retention time for COc1cc(OC)cc(C(=O)N2CCCC2c2nc(-c3ccc(OC)c(OC)c3)no2)c1 (centres undefined) please.
879

Quick one: RP-LC retention time for Cc1ccc(F)c(-n2cc(C(=O)O)nn2)c1 ?
684

Reported RP-LC retention time, compound Cn1nc(C(=O)N2CCCC(C(=O)Nc3ccccc3)C2)c2c1CCN(C(=O)c1ccc(F)cc1)C2 (centres undefined) : ____
756

Can you look up the measured RP-LC retention time of CCCC(C)C(=O)N1CCCN(C2=NS(=O)(=O)C(c3ccc(C)cc3)=C2C)CC1 (centres undefined) for me?
884

// lookup RP-LC retention time for Cc1cc(C)cc(NC(=O)Cn2ncc3c(N4CCN(c5ccccn5)CC4)ncnc32)c1
606

Any idea what RP-LC retention time was measured for COCCCn1c(=O)c2ccccc2n(Cc2nc(-c3ccccc3Cl)no2)c1=O ?
1140

# query: RP-LC retention time of entry CC(C)c1ccc(-n2ccnc(NC(=O)Nc3cccc(Cl)c3)c2=O)cc1
1240

Look up RP-LC retention time for this compound: O=C(C1CCN(c2cnc(N3CCOCC3)nc2)CC1)N1CCCCC1
646

Give its RP-LC retention time value. Item: COc1ccc(N2C(=O)C3N=NN(Cc4nc(-c5ccc(Cl)cc5)no4)C3C2=O)cc1OC (centres undefined)
963

Field request: RP-LC retention time | item: CC1=C(C(=O)Nc2ccc(F)cc2C)C2(CCCCCC2)OC1=O
972

Requested field: RP-LC retention time. Item: CCCNC(=O)N(C1CCOCC1)C1CCN(C(=O)CCc2c[nH]c3ccccc23)CC1
730

Record request: RP-LC retention time value, item Cc1ncc2n1CCN(S(=O)(=O)c1ccccc1)C2
584

# input compound: CCc1noc(CC2CCOC3(CCN(S(=O)(=O)c4ccc(Cl)cc4)CC3)C2)n1 (centres undefined) ; wanted: its RP-LC retention time
1070

# lookup: RP-LC retention time of CC(C)CC(=O)NCCc1nc2cccnc2n1-c1ccccc1
661

Query: RP-LC retention time; subject: CC(C)N1C(=O)c2cccnc2Sc2cc(C(=O)N3CCCN(C)CC3)ccc21
596

So what does the record say about RP-LC retention time for CCCNc1cc(N2CCCC(CCC(=O)N3CCN(C(=O)c4ccco4)CC3)C2)ncn1 (centres undefined) ?
628

Suppose we examine the compound CCN(CC)C(=O)c1ccc(-c2nc3cc(NS(=O)(=O)c4ccccc4F)ccc3n2C)cc1 ; what RP-LC retention time value has been reported?
679
